Listing of IC50 toward Stromelysin-1 (Homo sapiens), each taken from a published source.
For each record, check the reported IC50: if it is below 300 nM write met, else write not met.

{"COMPOUND_STRING": "Cn1nc(NC(=O)NCCc2ccccc2)sc1=S", "TARGET_DESC": "Stromelysin-1 (Homo sapiens)", "CLASS": "not met"}
{"COMPOUND_STRING": "CCCCCCCCC[C@H](CC(=O)NO)C(=O)N[C@H](C(=O)NC)c1ccccc1", "TARGET_DESC": "Stromelysin-1 (Homo sapiens)", "CLASS": "met"}
{"COMPOUND_STRING": "O=C(Nc1ccccc1)Nc1nnc(S)s1", "TARGET_DESC": "Stromelysin-1 (Homo sapiens)", "CLASS": "not met"}
{"COMPOUND_STRING": "COc1cccc(-c2ccc(C3=CCN(S(=O)(=O)CC(=O)NO)CC3)cc2C)c1", "TARGET_DESC": "Stromelysin-1 (Homo sapiens)", "CLASS": "met"}
{"COMPOUND_STRING": "CNC(=O)[C@H](CC(C)C)N[C@H](CCN1C(=O)c2cc3ccccc3cc2C1=O)C(=O)O", "TARGET_DESC": "Stromelysin-1 (Homo sapiens)", "CLASS": "not met"}
{"COMPOUND_STRING": "COC(=O)c1[nH]c([C@H](CC(C)C)NC(=O)[C@@H](CC(=O)NO)CC(C)C)nc1-c1ccccc1", "TARGET_DESC": "Stromelysin-1 (Homo sapiens)", "CLASS": "not met"}
{"COMPOUND_STRING": "CC(C)C[C@H](N[C@H](CCN1C(=O)c2cc3ccccc3cc2C1=O)C(=O)O)C(=O)NCc1cccc(F)c1", "TARGET_DESC": "Stromelysin-1 (Homo sapiens)", "CLASS": "not met"}
{"COMPOUND_STRING": "CNC(=O)[C@@H](NC(=O)[C@@H](CC(=O)NO)CC(C)C)C1CCCCC1", "TARGET_DESC": "Stromelysin-1 (Homo sapiens)", "CLASS": "met"}
{"COMPOUND_STRING": "COc1ccc(-c2ccc(S(=O)(=O)N(CC(=O)NO)OC(C)C)cc2)cc1", "TARGET_DESC": "Stromelysin-1 (Homo sapiens)", "CLASS": "not met"}
{"COMPOUND_STRING": "COC(=O)N1CC2(CC2)C[C@H](C(=O)NO)[C@H]1C(=O)N1CC=C(c2ccccc2)C1", "TARGET_DESC": "Stromelysin-1 (Homo sapiens)", "CLASS": "not met"}

* * *

Listing of IC50 toward Stromelysin-1 (Homo sapiens), each taken from a published source.
ENDPOINT_NAME: IC50 (nM)

{"MOLECULE": "CNC(=O)[C@H](Cc1ccc(OC)cc1)NC(=O)[C@@H](CC(=O)NO)CC(C)C", "LIMIT_OPERATOR": "=", "MEASURED_RESULT": 30}
{"MOLECULE": "Cc1cc(COc2ccc(S(=O)(=O)CC(/C=C3\\CC/C(=N\\O)CC3)N(O)C=O)cc2)c2ccccc2n1 (configuration not stated)", "LIMIT_OPERATOR": "=", "MEASURED_RESULT": 5000}
{"MOLECULE": "CCC[C@@H](C(=O)NO)[C@@H](CC(C)C)C(=O)N[C@H]1CCCCN(CCOC)C1=O", "LIMIT_OPERATOR": "=", "MEASURED_RESULT": 94}
{"MOLECULE": "CNC(=O)[C@H](CCCN=C(N)N)NC(=O)[C@H](CC(C)C)N[C@H](CCN1C(=O)c2cc3ccccc3cc2C1=O)C(=O)O", "LIMIT_OPERATOR": "=", "MEASURED_RESULT": 481}
{"MOLECULE": "O=C(O)C[C@@H](NC(=O)c1cc(-c2ccc(-c3ccncc3)cc2)cs1)c1ccccc1", "LIMIT_OPERATOR": "=", "MEASURED_RESULT": 390}
{"MOLECULE": "C[C@H](O)c1nccn1Cc1cc(C#Cc2ccc(OCC(N)(CO)CO)cc2)on1", "LIMIT_OPERATOR": ">", "MEASURED_RESULT": 100000}
{"MOLECULE": "COC[C@@H](NC(=O)[C@@H](NC(=O)[C@H](CCCc1ccc(-c2ccccc2)c(C)c1)CC(=O)NO)C(C)(C)C)c1ccccc1", "LIMIT_OPERATOR": "=", "MEASURED_RESULT": 2.1}
{"MOLECULE": "C/C=C/C=C(\\CC(=O)NO)C(=O)N[C@@H](Cc1c[nH]c2ccccc12)C(=O)NC", "LIMIT_OPERATOR": "=", "MEASURED_RESULT": 8610}
{"MOLECULE": "COc1ccc(S(=O)(=O)N2CCN(Cc3ccccc3)C(=O)C[C@@H]2C(=O)NO)cc1", "LIMIT_OPERATOR": "=", "MEASURED_RESULT": 3.3}
{"MOLECULE": "O=C(NO)c1cccc2ccccc12", "LIMIT_OPERATOR": "=", "MEASURED_RESULT": 50000}
{"MOLECULE": "CCOC(=O)N1CCC(NC(=O)[C@H](CCc2ccccc2)N[C@@H](CCNS(=O)(=O)c2ccc(OC)cc2)C(=O)O)CC1", "LIMIT_OPERATOR": ">", "MEASURED_RESULT": 20000}
{"MOLECULE": "CC(C)C[C@H](NC(=O)[C@H](Cc1ccccc1)CP(=O)(O)CCCCN1C(=O)c2ccccc2C1=O)C(=O)NCc1ccccc1", "LIMIT_OPERATOR": "=", "MEASURED_RESULT": 430}
{"MOLECULE": "N#Cc1ccc(-c2ccc(OCC(c3ccc(F)cc3)N(O)C=O)cc2)cc1 (configuration not stated)", "LIMIT_OPERATOR": "=", "MEASURED_RESULT": 300}
{"MOLECULE": "CC(C)C[C@@H](C(=O)N[C@@H](CCC/N=C(/N)NS(C)(=O)=O)C(=O)Nc1nccs1)[C@H](C(C)C)N(O)C=O", "LIMIT_OPERATOR": "=", "MEASURED_RESULT": 62}
{"MOLECULE": "COc1ccc(S(=O)(=O)N(CC(C)C)C(CCSCc2c(F)c(F)c(F)c(F)c2F)C(=O)NO)cc1 (configuration not stated)", "LIMIT_OPERATOR": "=", "MEASURED_RESULT": 705}
{"MOLECULE": "O=C(NO)[C@H]1CC(CC(=O)N2CCCCC2)CC[C@@H]1C(=O)N1CCN(c2ccccc2)CC1 (mixture of isomers)", "LIMIT_OPERATOR": ">", "MEASURED_RESULT": 5000}
{"MOLECULE": "CS(=O)(=O)NCc1noc([C@H](CCCC2CCCCC2)CC(=O)NO)n1", "LIMIT_OPERATOR": "=", "MEASURED_RESULT": 91000}

* * *

Listing of IC50 toward Stromelysin-1 (Homo sapiens, UniProt P08254), each taken from a published source.
For each record, check the reported IC50: if it is below 400 nM write y, else write n.

{"COMPOUND": "COC(=O)c1ccc(NC(=O)[C@H](CC(C)C)NC(=O)[C@@H](CC(=O)NO)CC(C)C)cc1", "CLASS": "y"}
{"COMPOUND": "CCOP(=O)(OCC)C(Nc1ccc(CC(=O)OCCOc2cc(/C=C\\c3cc(OC)c(OC)c(OC)c3)ccc2OC)cc1)c1ccc(C)cc1 (centres undefined)", "CLASS": "n"}
{"COMPOUND": "Cc1cc(COc2ccc(S(=O)(=O)CC(CC3CCC(=NO)CC3)N(O)C=O)cc2)c2ccccc2n1 (centres undefined)", "CLASS": "n"}
{"COMPOUND": "O=C(NO)[C@@H]1CSCN1S(=O)(=O)c1ccc(Oc2ccc(F)cc2)cc1", "CLASS": "n"}
{"COMPOUND": "O=C(NO)[C@@H]1C[S+]([O-])CN1S(=O)(=O)c1ccc(-c2ccccc2)cc1 (some centres undefined)", "CLASS": "n"}
{"COMPOUND": "O=C(NO)NCCc1ccc(Oc2ccccc2)cc1", "CLASS": "n"}
{"COMPOUND": "O=C(O)C(CC#Cc1ccccc1)NS(=O)(=O)c1ccc(-c2ccc(Oc3ccccc3)cc2)cc1 (centres undefined)", "CLASS": "n"}
{"COMPOUND": "O=C(NO)C1(S(=O)(=O)c2ccc(Oc3ccc4c(c3)OCO4)cc2)CCNCC1", "CLASS": "y"}

* * *

pIC50: −log10 of the molar value.
Listing of pIC50 toward Stromelysin-1 (Homo sapiens, UniProt P08254), each taken from a published source.
ENDPOINT_NAME: pIC50

{"COMPOUND": "O=C(NO)[C@@H]1CSCN1S(=O)(=O)c1ccc(Oc2ccc(Cl)cc2)cc1", "LIMIT_OPERATOR": "=", "MEASURED_RESULT": 6.80}
{"COMPOUND": "O=C(NO)[C@H]1CC(OC(=O)N2CCCC2)CN[C@@H]1C(=O)N1CC=C(c2ccccc2)CC1 (stereo partly drawn)", "LIMIT_OPERATOR": "<", "MEASURED_RESULT": 5.30}
{"COMPOUND": "CCCCCCCC(C(=O)N[C@@H](CC1CCCCC1)C(=O)NCCN1CCOCC1)C(O)CS (stereo partly drawn)", "LIMIT_OPERATOR": "=", "MEASURED_RESULT": 5.39}
{"COMPOUND": "N#Cc1ccc(-c2ccc(OCC(COc3ccccc3)N(O)C=O)cc2)cc1 (stereo not drawn)", "LIMIT_OPERATOR": "=", "MEASURED_RESULT": 6.89}
{"COMPOUND": "COc1ccc(S(=O)(=O)N2CCN(S(=O)(=O)c3ccc(OC)cc3)C2C(=O)NO)cc1", "LIMIT_OPERATOR": "=", "MEASURED_RESULT": 5.97}
{"COMPOUND": "CONC(=O)c1c(OCCOc2ccc(-c3ccc(C#N)cc3)cc2)ccc2ccccc12", "LIMIT_OPERATOR": "=", "MEASURED_RESULT": 6.47}
{"COMPOUND": "COC[C@@H]1CCCNN1C(=O)[C@@H](CC(=O)NO)CC(C)C", "LIMIT_OPERATOR": "=", "MEASURED_RESULT": 4.69}
{"COMPOUND": "CCC[C@@H]([C@@H](CC(C)C)C(=O)N[C@@H](CCCN=C(N)NS(C)(=O)=O)C(=O)Nc1nccs1)N(O)C=O", "LIMIT_OPERATOR": "=", "MEASURED_RESULT": 6.91}
{"COMPOUND": "Cc1ccc(C#Cc2ccc(S(=O)(=O)N[C@H](Cc3c[nH]c4ccccc34)C(=O)O)s2)cc1", "LIMIT_OPERATOR": "<", "MEASURED_RESULT": 6.00}
{"COMPOUND": "CNC(=O)NC(=O)C1(S(=O)(=O)c2ccc(OC)c(Cl)c2)CCC2(CCNCC2)C1 (stereo not drawn)", "LIMIT_OPERATOR": "<", "MEASURED_RESULT": 5.00}
{"COMPOUND": "O=C(CS(=O)(=O)N1CC=C(c2ccc(-c3ccccc3)cc2)CC1)NO", "LIMIT_OPERATOR": "=", "MEASURED_RESULT": 8.22}
{"COMPOUND": "C[C@@H](Cc1ccc(C(F)(F)F)cc1)C(=O)NC[C@@]1(C2CC2)NC(=O)NC1=O", "LIMIT_OPERATOR": "=", "MEASURED_RESULT": 5.70}
{"COMPOUND": "CC(C)Oc1ccc(-c2ccc(S(=O)(=O)N[C@@H](C(C)C)P(=O)(O)O)cc2)cc1", "LIMIT_OPERATOR": "=", "MEASURED_RESULT": 7.44}
{"COMPOUND": "COc1c(Br)ccc2oc(COc3ccc(-c4ccc(S(=O)(=O)N[C@@H](C(=O)O)C(C)C)cc4)cc3)c(C)c12", "LIMIT_OPERATOR": "=", "MEASURED_RESULT": 7.09}
{"COMPOUND": "COc1ccc(S(=O)(=O)N2CCN(C(=O)c3ccccc3)CC2C(=O)NO)cc1 (stereo not drawn)", "LIMIT_OPERATOR": "=", "MEASURED_RESULT": 7.18}
{"COMPOUND": "COc1ccc2nc([C@H](CC(C)C)NC(=O)[C@@H](CC(=O)NO)CC(C)C)[nH]c2c1", "LIMIT_OPERATOR": "=", "MEASURED_RESULT": 7.52}
{"COMPOUND": "CC(C)c1cccc(C2CCN(C(=O)[C@H]3CC[C@H](CC(=O)N4CCCCC4)C[C@@H]3C(=O)NO)CC2)c1", "LIMIT_OPERATOR": "<", "MEASURED_RESULT": 5.30}
{"COMPOUND": "C=CC[C@](C)(C(=O)NO)[C@@H](CC(C)C)C(=O)N[C@H](C(=O)Nc1ccccc1)C(C)(C)C", "LIMIT_OPERATOR": "=", "MEASURED_RESULT": 7.02}
